Values were extracted from patent US20250019439A1.

Give pKd for every item shown.
- System: T1, ADI-26915
- T1 construct: anti-CD3 antibody made in CHO cells, captured by anti-human Fc
- T1 sequence (VH, as listed by the source, chain 1 of 2): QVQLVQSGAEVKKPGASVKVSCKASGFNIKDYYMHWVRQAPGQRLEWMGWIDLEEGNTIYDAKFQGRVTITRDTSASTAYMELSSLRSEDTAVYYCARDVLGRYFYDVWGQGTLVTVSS
- T1 sequence (VL, as listed by the source, chain 2 of 2): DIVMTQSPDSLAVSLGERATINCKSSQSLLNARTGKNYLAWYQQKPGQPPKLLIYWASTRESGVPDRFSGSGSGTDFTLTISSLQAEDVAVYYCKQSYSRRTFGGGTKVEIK
- Assay Remarks: SPR Carterra avidity, yeast anti-ID
One number for each entry, as −log10 of the molar value.

Binder	pKd
ADI-30242 (antibody, V domains shown, anti-ID IgG) VH: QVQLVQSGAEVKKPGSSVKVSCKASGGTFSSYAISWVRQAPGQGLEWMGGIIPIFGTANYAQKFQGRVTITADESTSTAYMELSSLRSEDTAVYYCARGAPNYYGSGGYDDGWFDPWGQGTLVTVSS VL: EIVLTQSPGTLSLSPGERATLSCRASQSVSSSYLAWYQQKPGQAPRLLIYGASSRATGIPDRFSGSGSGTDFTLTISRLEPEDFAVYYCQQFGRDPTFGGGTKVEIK	7.25

Dear colleague, could you please provide pKd for the binders listed below?
1. ADI-34137 (antibody, V domains shown, anti-ID IgG) VH: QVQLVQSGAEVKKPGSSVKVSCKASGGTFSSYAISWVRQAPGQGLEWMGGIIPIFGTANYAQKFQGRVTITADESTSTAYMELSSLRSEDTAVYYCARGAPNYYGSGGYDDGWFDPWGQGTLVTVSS VL: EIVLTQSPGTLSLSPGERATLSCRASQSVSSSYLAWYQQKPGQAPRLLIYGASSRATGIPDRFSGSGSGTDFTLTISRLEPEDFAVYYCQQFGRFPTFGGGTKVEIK
2. ADI-34134 IgG (antibody, V domains shown) VH: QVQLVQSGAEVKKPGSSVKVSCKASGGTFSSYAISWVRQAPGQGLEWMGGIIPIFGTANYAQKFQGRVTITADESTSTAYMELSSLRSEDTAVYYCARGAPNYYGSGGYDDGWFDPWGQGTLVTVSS VL: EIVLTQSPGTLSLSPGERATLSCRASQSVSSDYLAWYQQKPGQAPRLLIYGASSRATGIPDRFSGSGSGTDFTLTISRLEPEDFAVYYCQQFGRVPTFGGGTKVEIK
3. ADI-34135 (antibody, V domains shown, anti-ID IgG) VH: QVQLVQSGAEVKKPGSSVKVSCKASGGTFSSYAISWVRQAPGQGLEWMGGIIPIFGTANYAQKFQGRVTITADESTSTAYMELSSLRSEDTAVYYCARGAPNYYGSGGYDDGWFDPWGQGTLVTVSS VL: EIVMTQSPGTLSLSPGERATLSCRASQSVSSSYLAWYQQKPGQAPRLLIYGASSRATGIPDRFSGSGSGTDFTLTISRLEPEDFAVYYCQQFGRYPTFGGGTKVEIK

Output:
1: 7.85; 2: 7.72; 3: 7.82
